Values from paper PMC2630805

log10 IC50 values by entry
# experimentalTarget: DYRK1A (Rattus norvegicus, UniProt Q63470)
// units: nM (pre-log); metric: IC50; scale: log10

These recorded examples may help you get a feel for the data.
# compound, log10 IC50
records = [
    ("COc1ccc(-c2c3n(c4c(=O)oc5cc(O)c(OC)cc5c24)CCc2cc(O)c(OC)cc2-3)cc1O [Compound 7, lamellarin L]", 2.15),
    ("COc1cc(-c2c3c4cc(OC)c(O)cc4oc(=O)c3n3ccc4cc(OC)c(OC)cc4c23)ccc1O [Compound 2, lamellarin α]", 3.70),
    ("COc1cc(-c2c3c4ccccc4oc(=O)c3n3ccc4cc(O)c(OC)cc4c23)ccc1O [Compound 14, lamellarin 8]", 3.00),
]

q: Return log10 IC50 measured with DYRK1A (Rattus norvegicus, UniProt Q63470) given this compound: COc1cc(-c2c3n(c4c(=O)oc5cc(O)c(OC)cc5c24)CCc2cc(O)c(OC)cc2-3)ccc1O [Compound 3, di-H-lamellarin D]
a: 2.70

q: Return log10 IC50 measured with DYRK1A (Rattus norvegicus, UniProt Q63470) given this compound: COc1cc2c(cc1O)oc(=O)c1c2c(-c2ccc(O)cc2)c2c3cc(OC)c(O)cc3ccn21 [Compound 12, lamellarin 6]
a: 1.95

q: Return log10 IC50 measured with DYRK1A (Rattus norvegicus, UniProt Q63470) given this compound: COc1ccc2oc(=O)c3c(c(-c4ccc(O)c(OC)c4)c4c5cc(OC)c(O)cc5ccn43)c2c1 [Compound 10, lamellarin 4]
a: 1.90

q: Return log10 IC50 measured with DYRK1A (Rattus norvegicus, UniProt Q63470) given this compound: COc1ccc(-c2c3c4cc(OC)c(O)cc4oc(=O)c3n3ccc4cc(O)c(OC)cc4c23)cc1O [Compound 6, lamellarin N]
a: 1.54

q: Return log10 IC50 measured with DYRK1A (Rattus norvegicus, UniProt Q63470) given this compound: COc1cc(-c2c3c4cc(OC)c(O)cc4oc(=O)c3n3ccc4cc(O)c(OC)cc4c23)ccc1O [Compound 1, lamellarin D]
a: 2.65

---

# experimentalTarget: CDK5/p25 (Homo sapiens)
# Sequence (Q00535 whole entry): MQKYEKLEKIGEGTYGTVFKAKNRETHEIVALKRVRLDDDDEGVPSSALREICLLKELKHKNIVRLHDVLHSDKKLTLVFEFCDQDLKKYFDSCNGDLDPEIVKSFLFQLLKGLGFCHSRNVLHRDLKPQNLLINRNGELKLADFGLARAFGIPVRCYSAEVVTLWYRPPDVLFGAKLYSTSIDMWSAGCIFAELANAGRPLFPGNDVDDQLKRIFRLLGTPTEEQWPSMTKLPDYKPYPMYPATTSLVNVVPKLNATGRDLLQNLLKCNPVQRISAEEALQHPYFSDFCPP
# Sequence (Q15078 99-307 partner limits assumed): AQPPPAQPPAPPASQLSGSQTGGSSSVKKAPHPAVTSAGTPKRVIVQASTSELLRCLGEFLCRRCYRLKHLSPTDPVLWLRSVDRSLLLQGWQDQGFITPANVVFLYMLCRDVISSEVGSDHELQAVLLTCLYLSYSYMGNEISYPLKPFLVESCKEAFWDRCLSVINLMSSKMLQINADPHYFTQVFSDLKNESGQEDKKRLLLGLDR
# procedureDetails: CDK5/p25 kinase assay (histone H1)
IC50 values by entry
Please reply with the bare figure in nM and do not write the unit itself.

# querySmiles, IC50 (nM)
data = [
    ("COc1cc(-c2c3c4ccc(O)cc4oc(=O)c3n3ccc4cc(O)c(OC)cc4c23)ccc1O", 600),
    ("COc1cc(-c2c3c4ccccc4oc(=O)c3n3ccc4cc(O)c(OC)cc4c23)ccc1O", 900),
    ("COc1ccc(-c2c3c4cc(OC)c(O)cc4oc(=O)c3n3ccc4cc(O)c(OC)cc4c23)cc1O", 25),
]

q: Find the recorded IC50 belonging to "COc1cc(-c2c3n(c4c(=O)oc5cc(O)c(OC)cc5c24)CCc2cc(O)c(OC)cc2-3)ccc1O" and report it.
a: 110

q: Find the recorded IC50 belonging to "COc1cc2c(cc1O)oc(=O)c1c2c(-c2ccc(O)cc2)c2c3cc(OC)c(O)cc3ccn21" and report it.
a: 30

---

pIC50 values by entry
# experimentalTarget: GSK-3α/ß
# procedureDetails: GSK-3α/β kinase assay (GS-1 substrate)
# conditionSet: 15 μM ATP; cell '− (x)' = no inhibitory activity detected, x = highest concentration tested
Lab note — pIC50 values are minus log10 of concentrations in M.

These recorded examples may help you get a feel for the data.
# querySmiles, pIC50
measured = [
    ("COc1ccc(-c2c3n(c4c(=O)oc5cc(O)c(OC)cc5c24)CCc2cc(O)c(OC)cc2-3)cc1O", 7.39),
    ("COc1cc(-c2c3c4cc(OC)c(O)cc4oc(=O)c3n3ccc4cc(OC)c(OC)cc4c23)ccc1O", 5.85),
    ("COc1cccc(-c2c3c4cc(OC)c(O)cc4oc(=O)c3n3ccc4cc(O)c(OC)cc4c23)c1", 5.68),
]

Here's the next entry for you.
q: Find the recorded pIC50 belonging to "COc1cc(-c2c3c4ccc(O)cc4oc(=O)c3n3ccc4cc(O)c(OC)cc4c23)ccc1O" and report it.
a: 6.24

---

# experimentalTarget: CK1
# procedureDetails: CK1 kinase assay (CKS peptide)
# Format: biochemical, porcine
# conditionSet: 15 μM ATP; cell '− (x)' = no inhibitory activity detected, x = highest concentration tested
IC50 values by entry
Please reply with the bare figure in µM and do not write the unit itself.

# compound, experimentalTarget, resultType, observedMeasurement
measured = [
    ("O=c1oc2cc(O)c(O)cc2c2c(-c3ccc(O)c(O)c3)c3c4cc(O)c(O)cc4ccn3c12 [Compound 4, lamellarin H]", "CK1", "IC50", 5.3),
]

Here's the next entry for you.
q: Return IC50 measured with CK1 given this compound: COc1ccc2oc(=O)c3c(c(-c4ccc(O)c(OC)c4)c4c5cc(OC)c(O)cc5ccn43)c2c1 [Compound 10, lamellarin 4]
a: 1.3

---

# experimentalTarget: PIM 1 (Homo sapiens)
# Sequence (P11309 whole entry, species assumed): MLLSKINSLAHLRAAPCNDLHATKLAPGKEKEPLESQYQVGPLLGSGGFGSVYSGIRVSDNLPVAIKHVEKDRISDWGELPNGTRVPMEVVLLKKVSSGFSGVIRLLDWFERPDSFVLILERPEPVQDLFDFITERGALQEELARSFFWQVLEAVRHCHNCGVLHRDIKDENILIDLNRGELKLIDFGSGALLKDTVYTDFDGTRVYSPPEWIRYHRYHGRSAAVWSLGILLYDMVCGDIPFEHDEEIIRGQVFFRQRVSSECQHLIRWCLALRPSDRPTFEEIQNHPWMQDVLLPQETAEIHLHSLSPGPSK
# procedureDetails: PIM1 kinase assay (histone H1)
# Format: biochemical
# conditionSet: 15 μM ATP; cell '− (x)' = no inhibitory activity detected, x = highest concentration tested; read-out: IC50 PIM 1
resultType: pIC50
Lab note — pIC50 values are minus log10 of concentrations in M.

These recorded examples may help you get a feel for the data.
# querySmiles, pIC50
data = [
    ("COc1ccc2oc(=O)c3c(c(-c4ccc(O)c(OC)c4)c4c5cc(OC)c(O)cc5ccn43)c2c1", 7.30),
    ("COc1ccc(-c2c3n(c4c(=O)oc5cc(O)c(OC)cc5c24)CCc2cc(O)c(OC)cc2-3)cc1O", 6.60),
]

q: Find the recorded pIC50 belonging to "COc1cc(-c2c3c4ccc(O)cc4oc(=O)c3n3ccc4cc(O)c(OC)cc4c23)ccc1O" and report it.
a: 6.82

---

# experimentalTarget: CDK1/cyclin B
# procedureDetails: CDK1/cyclin B kinase assay (histone H1, P81 phosphocellulose)
# Assay type: biochemical, starfish (Marthasterias glacialis)
# conditionSet: 15 μM ATP; cell '− (x)' = no inhibitory activity detected, x = highest concentration tested
# Method: ATP (3,000 Ci/mmol; 1 mCi/ml) in a final volume of 30 μl. […] The wet filters were counted in the presence of 1 ml ACS (Amersham) scintillation fluid.
pIC50 values by entry
Lab note — pIC50 values are minus log10 of concentrations in M.

# querySmiles, experimentalTarget, observedMeasurement
data = [
    ("COc1ccc2oc(=O)c3c(c(-c4ccc(O)c(OC)c4)c4c5cc(OC)c(O)cc5ccn43)c2c1", "CDK1/cyclin B", 5.70),
    ("COc1cc2c(cc1O)oc(=O)c1c2c(-c2ccc(O)cc2)c2c3cc(OC)c(O)cc3ccn21", "CDK1/cyclin B", 7.00),
    ("COc1cc(-c2c3c4cc(OC)c(O)cc4oc(=O)c3n3ccc4cc(OC)c(OC)cc4c23)ccc1O", "CDK1/cyclin B", 5.10),
]

q: Find the recorded pIC50 belonging to "COc1cc(-c2c3c4ccc(O)cc4oc(=O)c3n3ccc4cc(O)c(OC)cc4c23)ccc1O" and report it.
a: 6.28

---

# experimentalTarget: CDK1/cyclin B
# procedureDetails: CDK1/cyclin B kinase assay (histone H1, P81 phosphocellulose)
# conditionSet: 15 μM ATP; cell '− (x)' = no inhibitory activity detected, x = highest concentration tested
pIC50 values by entry
Lab note — pIC50 values are minus log10 of concentrations in M.

# querySmiles, pIC50
records = [
    ("COc1cc(-c2c3n(c4c(=O)oc5cc(O)c(OC)cc5c24)CCc2cc(O)c(OC)cc2-3)ccc1O", 5.73),
    ("COc1cccc(-c2c3c4cc(OC)c(O)cc4oc(=O)c3n3ccc4cc(O)c(OC)cc4c23)c1", 5.37),
    ("COc1ccc(-c2c3n(c4c(=O)oc5cc(O)c(OC)cc5c24)CCc2cc(O)c(OC)cc2-3)cc1O", 6.42),
]

q: Find the recorded pIC50 belonging to "COc1cc(-c2c3c4ccccc4oc(=O)c3n3ccc4cc(O)c(OC)cc4c23)ccc1O" and report it.
a: 5.30

q: Find the recorded pIC50 belonging to "COc1cc(-c2c3c4cc(OC)c(O)cc4oc(=O)c3n3ccc4cc(O)c(OC)cc4c23)ccc1O" and report it.
a: 6.30

---

# experimentalTarget: CK1
# procedureDetails: CK1 kinase assay (CKS peptide)
# Type: biochemical, porcine
resultType: IC50 (µM)
Please reply with the bare figure in µM and do not write the unit itself.

q: Return IC50 measured with CK1 given this compound: COc1cc(-c2c3c4cc(OC)c(O)cc4oc(=O)c3n3ccc4cc(O)c(OC)cc4c23)ccc1O [Compound 1, lamellarin D]
a: 13
